tested on: M14 melanoma; test: NCI-60 one-dose screen, 48 h (100 = growth as untreated, 0 = no growth, -100 = all killed); details: 10 µM unless noted
The panel holds about 83,000 compounds, 20% with a hit somewhere; the sample as a whole holds those more often.
Label rule not met if growth falls below 90%; label rule met in every other case.

Entry CCC1(C2CCCC2)NC(=O)NC1=O (centres undefined) : is its growth no less than 90%?
rule met

Please indicate if the recorded growth for COc1cccc(C(=O)NCCNc2cc(-c3cn(-c4ccccc4)nc3-c3cccc(OC)c3)ccn2)c1 meets or exceeds 90%.
rule not met

Is reported growth greater than or equal to 90% here: O=c1cc(C2NNC(=S)N2)c2ccc3ccccc3c2o1 (centres undefined)
rule met

Kindly determine if growth recorded for CS(=O)c1cccc(-c2ccc3nc(N)n(-c4ccc(C(F)(F)F)cc4)c(=O)c3c2)c1 (centres undefined) is above or exactly 90%.
rule met

Quick check: does CN(C)c1ccc(-c2ccc3[nH]c(=O)nc(-c4ccccc4)c3c2)cn1 have growth greater than or equal to 90%?
rule not met

Does the reported growth for O=C(c1ccccc1)c1c(/C=C/c2ccccc2)nc2ccccc2c1/C=C/c1ccc(Br)cc1 fall at or above the 90% mark?
rule met

Record COC(=O)c1c2c(c(C)[n+]([O-])c1C)C(=O)C(NCc1ccc(F)cc1)=CC2=O ; criterion: growth no lower than 90%. Met?
rule not met

API: above_or_equal(metric=growth, cutoff=90%) for item CC(C)(C)CC(C)(C)Nc1c(-c2ccncc2)nc2cnccn12
rule met

====

tested on: SK-OV-3 ovarian; experiment: NCI-60 one-dose screen, 48 h (100 = growth as untreated, 0 = no growth, -100 = all killed); settings: 10 µM unless noted
Compounds without any hit were thinned out: in the full panel of roughly 83,000, 20% have a hit.
Kindly state growth for each of the entries shown.
Reply numerically in %, unit not repeated.

Request body: readout growth, system SK-OV-3 ovarian, query O=C(NCCNc1cc(-c2cn(-c3ccccc3)nc2-c2cccc(O)c2)ccn1)Nc1ccccc1 . Return the value.
65.1

Under SK-OV-3 ovarian: growth value of O=C(c1ccccc1)c1c(/C=C/c2ccccc2)nc2ccccc2c1/C=C/c1ccc(Br)cc1 ?
96.3

Look up growth with SK-OV-3 ovarian for this compound: C[C@]12CC[C@@H]3c4cc(OC(F)F)c(O)cc4CC[C@H]3[C@@H]1CC[C@@H]2OS(N)(=O)=O
39.7

Value wanted: growth (SK-OV-3 ovarian) of entry C=C(C)[C@@H]1CC[C@]2(C)[C@H](CC=C3[C@@H]4CC(C)(C)CC[C@]4(C(N)=O)CC[C@]32C)[C@@]1(C)CCC#N
48.1

API: value(readout= growth, system= SK-OV-3 ovarian, query= COc1ccccc1N1C(=O)/C(=C/C2=Cc3ccccc3OC2)SC1=S )
95.2

Find the measured growth: item O=C(CSc1nccc(Nc2ccc(S(=O)(=O)Nc3nccs3)cc2)n1)c1ccc(F)cc1 , target or system SK-OV-3 ovarian.
97.6

Kindly state the measured growth obtained for c1ccc2c(c1)nc(CN1CCOCC1)n1cc(N3CCCC3)nc21 with SK-OV-3 ovarian.
89.8

API: value(readout= growth, system= SK-OV-3 ovarian, query= N#Cc1c(-c2ccccc2)cc(-c2ccc(Nc3nc(Nc4ccc(F)cc4)nc(Nc4ccc(F)cc4)n3)cc2)nc1N )
100

Field: growth (SK-OV-3 ovarian). Entry: COC(=O)c1ccc(C2Nc3ccc(S(=O)(=O)Nc4ccc(C)c(C)c4)cc3C3OCCC23)cc1 (centres undefined)
92

What measured growth is associated with O=C(O)c1ccc2c(c1)CCC2 on SK-OV-3 ovarian?
107

What value of growth on SK-OV-3 ovarian does COc1cc(N=Nc2cc(Cc3ccc(N(C)C)cc3)c(N)cc2N(C)C)c2ncccc2c1 have?
-0.131

Reported growth for SK-OV-3 ovarian, given CCCCCCCCCCCCCCCCCCOc1ccc(CC(=O)OCC[N+]2(C)CCCC2)cc1 ?
108

Recorded growth for COc1ccc(-c2nc3ccc4[nH]ncc4c3c3c2CCCC3)cc1B(O)O with SK-OV-3 ovarian, please?
14.4

Lab note: need growth with SK-OV-3 ovarian for entry CCCCn1c(=O)c2c(nc(NCCc3ccc(O)c(O)c3)n2CCC)n(CCCC)c1=O , please look it up.
96.3
